meta.source: patent US20240400718A1

biological target: S#050: VH-L1-VL CAR-T; assay: flow cytometry on CAR-T cells; PE-labeled secondary antibody; PE-positive cells / total cells
property measured: Reactivity (%)
Numbers only; they are read as %.

Consider the reported Reactivity (%) for these binders:
binder	unit annotation	Reactivity (%)
3E7-C1 (antibody, V domains shown) VH: QVQMKESGPGLVQPSETLSLTCTVSGFSLTSYGVSWVRQPSGKGPEWMGRLWNDGDTAYNSALKSRLSISRDTSKNQVFLKMNSLQTDDTGTYYCTTMNGYKDYWGQGVMVTVSS VL: TSYELIQPPSASVTLGNTVSLTCVGDELPKRYAYWYQQKPDQSIVRVIYEDSKRPSGISDRFSGSSSGTTATLTIRDAQAEDEADYYCHSTYSDDKLRIFGGGTKLTVLG	%	0.1
3A4-A10-7 (antibody, V domains shown) VH: QVQLQQSGAALVKPGASVKMSCKASGYTFTDCWVSWVKQSHGKSLEWIGEIHPNSGTTNFNEKFKGKATLTVDKSTSTAYMELSRLTSEDSAIYYCTRAYGGYPFDYWGQGVMVTVSS VL: ADLVLTQPKSVSTSLESTVKLSCKLNSGNIGRYYMHWYQQHEGRSPTNMIYRDDKRPDGVPDRFSGSIDSSSNSAFLTINNVQTEDEAIYFCHSYDSSINIFGGGTKLTVLG	%	18.5
2D12-B12 (antibody, V domains shown) VH: EVKLVESGGGLVQPGRSLKLSCAASGFNFNDYWMGWVRQAPGKGLEWIGEIKKDSSIINYIPSLKDKFTISRDNAQNTLYLQMSKLGSEDTAIYYCARGVEYYGYHYWGQGTLVTVSS VL: DIVMTQSPSSLAVSAGETVTINCKSSQSLLYSGNQKNYLAWYQQKPGQSPKLLIYWASTRHSGVPARFIGSGSGSDFTLTISSVQAEDLAIYCCQQYYDIPYTFGAGTKLELK	%	14.5

In the following, a different binder is considered.
Prompt: I have this binder here, 4B9-B11 (antibody, V domains shown) VH: QMQLKESGPGLVQPSETLSLTCTVSGFSLTSYSVSWVRQPSGKGPEWMGRMYYDGDTAYNSALKSRLSISRDTSKNQVFLKMNSLQTDDTGTYYCTRSIGAEDYWGQGVMVTVSS VL: TSYELIQPPSASVTLGNTVSLTCVGDELPKRYAYWYQQKPDQSIVRVIYEDSKRPSGISDRFSGSSSGTTATLTIRDAQNEDEADYYCHSTYSDDKLRIFGGGTKLTVLG , and I need its recorded Reactivity (%).
Response: 1.1
